- assay.protocol: NCI Yeast Anticancer Drug Screen. Data for the mlh1 rad18 strain (AID 175)
- particulars: S. cerevisiae mlh1 rad18 strain growth inhibition; at 50.0 µM; stronger effect = higher value
- Description: Growth inhibition of yeast strains with defined genetic alterations is measured as a screen for potential anti-cancer activity. Selected strains with alterations in DNA damage repair or cell cycle control were exposed to compounds and growth inhibition was measured relative to vehicle treated controls. The strain used in this assay is mlh1 rad18
About 79,000 compounds went through this panel and 15% of them were active in at least one assay; those are over-represented in the sample as a whole.
metric.name: growth inhibition (%)
The response must be a number in % with no trailing unit.

CCS(=O)(=O)CCCl :: 5.85
CCOC(=O)CNN :: -30.1
NC(=O)N/N=C\c1ccco1 :: 13.1
CNS(=O)(=O)c1ccc(Cl)c(Cl)c1 :: -40.9
N#Cc1ccc(NC(=O)Nc2cccc(C#N)c2)cc1 :: -15.6
CCOc1ccccc1/C=N/Nc1nc2ccccc2o1 :: 33.6

Fill in the blank: the reported growth inhibition of O=S(=O)(Cc1ccccc1)c1ccccc1 is ____.
23.9

Fill in the blank: the reported growth inhibition of CCc1nn(Cc2ccccc2)c2nc(C)c(CCc3ccccc3)c(Cl)c12 is ____.
-2.75

Fill in the blank: the reported growth inhibition of C[N+](C)=c1ccc2nc3c(cc(Nc4ccccc4)c4ccccc43)oc-2c1 is ____.
39.2

Fill in the blank: the reported growth inhibition of C=CC(=O)OCCCCCCCC is ____.
2.85

Fill in the blank: the reported growth inhibition of CCCCOC(OCCCC)c1ccccc1 is ____.
12.2

----------
- assay.protocol: NCI Yeast Anticancer Drug Screen. Data for the mec2-1 strain (AID 157)
- particulars: S. cerevisiae mec2-1 strain, at 50.0 µM, stronger effect = higher value
About 79,000 compounds went through this panel and 15% of them were active in at least one assay; those are over-represented in the sample as a whole.
metric.name: growth inhibition (%)
The response must be a number in % with no trailing unit.

Here is how some compounds turned out for growth inhibition.
NC(=S)CN1CCOCC1 :: -3.2
N=c1c(C(=O)OCc2ccccc2)ncc(CCl)n1O :: 80.5
CCc1ccc(/C(C#N)=C/C=C/c2ccccc2)cc1 :: -12.2
CC1(O)CCCCC1O (configuration not stated) :: -37.6
COCCOC(=O)c1ccc(C(C)C)cc1 :: 0.35
NC(=O)NC(=O)c1ccc(Cl)cc1 :: -7.05

Turning to the following compound.
Fill in the blank: the reported growth inhibition of COc1ccc2c(NCCCCCCCCNc3c4ccccc4nc4cc(OC)ccc34)c3ccccc3nc2c1 is ____.
91.4

----------
- assay.protocol: NCI Yeast Anticancer Drug Screen. Data for the bub3 strain (AID 167)
- particulars: S. cerevisiae bub3 mutant strain, at 50.0 µM, stronger effect = higher value
Compounds without any hit were thinned out: in the full panel of roughly 79,000, 15% have a hit. The source made the active and inactive calls. No stated cut-off is given here; in the data, active means growth inhibition above about 70%; inactive means the rest.
Parameter: growth inhibition. Scope: all listed entries.

O=C(/C(=N/O)c1ccccc1)c1ccccc1 :: 4.85% (inactive)

Fill in the blank: the reported growth inhibition of CC(=O)OCCC(C)CCC=C(C)C (configuration not stated) is ____.
-16.9% (inactive)

Fill in the blank: the reported growth inhibition of COc1ccc(NC(=O)CCl)cc1 is ____.
36.7% (inactive)

Fill in the blank: the reported growth inhibition of O=[N+]([O-])c1cccc2nsnc12 is ____.
-8.15% (inactive)

Fill in the blank: the reported growth inhibition of COc1ccc(/C=C/c2cccc[n+]2C)cc1 is ____.
-9.9% (inactive)

Fill in the blank: the reported growth inhibition of CN(C)CCN(Cc1ccccc1)c1ccccc1 is ____.
-20.8% (inactive)

Fill in the blank: the reported growth inhibition of C=C[Si](OC(C)=O)(OC(C)=O)OC(C)=O is ____.
13.7% (inactive)

Fill in the blank: the reported growth inhibition of O=c1[nH]nc(SC2CCCCC2)c(=O)[nH]1 is ____.
4.85% (inactive)
